Origin of measurements: ChEMBL document CHEMBL1139452

The following compounds are shown together with reported pIC50 values.
# SYSTEM_NAME: UniProt:P30518
# Sequence (P30518 whole entry): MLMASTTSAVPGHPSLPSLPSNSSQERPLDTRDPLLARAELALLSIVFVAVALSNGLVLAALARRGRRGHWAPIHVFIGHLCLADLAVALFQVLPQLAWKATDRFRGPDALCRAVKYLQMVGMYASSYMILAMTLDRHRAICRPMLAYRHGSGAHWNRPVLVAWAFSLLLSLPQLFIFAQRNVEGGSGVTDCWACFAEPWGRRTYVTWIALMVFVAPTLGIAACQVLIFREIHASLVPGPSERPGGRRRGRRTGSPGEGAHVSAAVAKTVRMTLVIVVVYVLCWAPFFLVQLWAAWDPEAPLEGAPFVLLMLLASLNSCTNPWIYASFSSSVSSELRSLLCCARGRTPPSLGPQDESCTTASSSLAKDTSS
# ASSAY_NOTES: Inhibitory activity against human recombinant arginine vasopressin V2 receptor using [3H]AVP as radioligand in CHO cells
FYI, pIC50 means -log10 of a concentration in mol per litre.

CN1CCN(CCN2CCCN(C(=O)c3ccc(NC(=O)c4ccccc4-c4ccccc4)cc3)c3ccsc32)CC1 ... 7.30

Would you kindly share the measured pIC50 for CN(C)CCN1CCCN(C(=O)c2ccc(NC(=O)c3ccccc3-c3ccccc3)cc2)c2ccsc21 ?
7.10

Would you kindly share the measured pIC50 for O=C(Nc1ccc(C(=O)N2CCCN(CCN3CCCC3)c3sccc32)cc1)c1ccccc1-c1ccccc1 ?
6.70

Would you kindly share the measured pIC50 for CN1CCN(C(=O)CCCOc2cc(C(=O)N3CCCCc4sccc43)ccc2NC(=O)c2ccccc2-c2ccccc2)CC1 ?
8.22

Would you kindly share the measured pIC50 for CN(C)C1CCN(C(=O)CCCOc2cc(C(=O)N3CCCCc4sccc43)ccc2NC(=O)c2ccccc2-c2ccccc2)CC1 ?
7.70

Would you kindly share the measured pIC50 for CN1CCCN(C(=O)CCCOc2cc(C(=O)N3CCCCc4sccc43)ccc2NC(=O)c2ccccc2-c2ccccc2)CC1 ?
8.00

Would you kindly share the measured pIC50 for CN1CCN(CCCCOc2cc(C(=O)N3CCCCc4sccc43)ccc2NC(=O)c2ccccc2-c2ccccc2)CC1 ?
9.00

Would you kindly share the measured pIC50 for CN(C)CCN(C)CCCCOc1cc(C(=O)N2CCCCc3sccc32)ccc1NC(=O)c1ccccc1-c1ccccc1 ?
7.10

###

The following molecules are shown together with reported ED50 values.
# System: Rattus norvegicus
# ASSAY_NOTES: Antagonistic effect against AVP-induced hypertension in rats after intravenous administration
# Assay type: functional
# EXPERIMENTAL_CONDITIONS: read-out: ID50 (the source's name)
Number in mg/kg, nothing else.

Before answering, review these 2 worked examples.
CN1CCCN(C(=O)CCCOc2cc(C(=O)N3CCCCc4sccc43)ccc2NC(=O)c2ccccc2-c2ccccc2)CC1 ... 0.008
CN1CCN(C(=O)CCCOc2cc(C(=O)N3CCCCc4sccc43)ccc2NC(=O)c2ccccc2-c2ccccc2)CC1 ... 0.03

Would you kindly share the measured ED50 for CN(C)CCN1CCCN(C(=O)c2ccc(NC(=O)c3ccccc3-c3ccccc3)cc2)c2ccsc21 ?
0.31

Would you kindly share the measured ED50 for CCN(CC)C1CCN(C(=O)CCCOc2cc(C(=O)N3CCCCc4sccc43)ccc2NC(=O)c2ccccc2-c2ccccc2)CC1 ?
0.01

Would you kindly share the measured ED50 for CN(C)CCN(C)CCCCOc1cc(C(=O)N2CCCCc3sccc32)ccc1NC(=O)c1ccccc1-c1ccccc1 ?
0.02

###

Parameter IC50, tested on Vasopressin V2 receptor (Rattus norvegicus, UniProt Q00788), listed per item.
Sequence (Q00788 whole entry): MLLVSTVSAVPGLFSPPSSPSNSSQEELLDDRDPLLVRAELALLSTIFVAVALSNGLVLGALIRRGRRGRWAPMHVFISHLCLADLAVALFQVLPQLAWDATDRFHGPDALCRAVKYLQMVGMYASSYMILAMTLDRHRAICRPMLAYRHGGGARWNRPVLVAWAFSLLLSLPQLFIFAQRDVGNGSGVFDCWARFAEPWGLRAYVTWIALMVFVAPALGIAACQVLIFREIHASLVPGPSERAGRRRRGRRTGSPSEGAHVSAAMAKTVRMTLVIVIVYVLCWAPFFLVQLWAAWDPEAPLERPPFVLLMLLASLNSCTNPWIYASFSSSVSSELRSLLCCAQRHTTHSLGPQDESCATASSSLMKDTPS
Number in nM, nothing else.

Before answering, review these 6 worked examples.
CN1CCN(C(=O)CCCOc2cc(C(=O)N3CCCCc4sccc43)ccc2NC(=O)c2ccccc2-c2ccccc2)CC1 ... 1
CN1CCN(CCN2CCCN(C(=O)c3ccc(NC(=O)c4ccccc4-c4ccccc4)cc3)c3ccsc32)CC1 ... 10
CN(C)C1CCN(C(=O)COc2cc(C(=O)N3CCCCc4sccc43)ccc2NC(=O)c2ccccc2-c2ccccc2)CC1 ... 4
O=C(Nc1ccc(C(=O)N2CCCCc3sccc32)cc1OCCCC(=O)N1CCC(N2CCCCC2)CC1)c1ccccc1-c1ccccc1 ... 20
COc1cc(C(=O)N2CCCC(N(C)C)c3sccc32)ccc1NC(=O)c1ccccc1-c1ccccc1 (centres undefined) ... 10
CCN(CC)C1CCN(C(=O)CCCOc2cc(C(=O)N3CCCCc4sccc43)ccc2NC(=O)c2ccccc2-c2ccccc2)CC1 ... 6

Would you kindly share the measured IC50 for CN(C)CCN(C)CCCCOc1cc(C(=O)N2CCCCc3sccc32)ccc1NC(=O)c1ccccc1-c1ccccc1 ?
8

Would you kindly share the measured IC50 for O=C(Nc1ccc(C(=O)N2CCCN(CCN3CCCC3)c3sccc32)cc1)c1ccccc1-c1ccccc1 ?
10
